Target: recombinant human A1 receptors (hA1) (Homo sapiens, UniProt P30542)
Test: Radioligand binding ([3H]CPX) at recombinant human A1 receptors in HEK-293 cells
Settings: read-out: hA1 Ki, values marked (h); Table 1; recombinant human A1, HEK 293
OUTCOME_MEASURE: Ki (nM)

Please review the following examples before continuing.
[
  {
    "SMILES_RECORD": "CCCn1c(=O)c2[nH]c(-c3ccc(C=CC(=O)O)cc3)nc2n(CCC)c1=O",
    "TEST_RESULT": 140
  },
  {
    "SMILES_RECORD": "CCCn1c(=O)c2[nH]c(-c3ccc(OCC(=O)O)cc3)nc2n(CCC)c1=O",
    "TEST_RESULT": 175
  }
]

[a] O=C(O)C=Cc1ccc(-c2nc3c([nH]2)c(=O)n(CC2CCCCC2)c(=O)n3CC2CCCCC2)cc1
[b] CCCCn1c(=O)c2[nH]c(-c3ccc(OCC(=O)O)cc3)nc2n(CCCC)c1=O
[c] C=CCn1c(=O)c2[nH]c(-c3ccc(OCC(=O)O)cc3)nc2n(CC=C)c1=O
Ranking field: Ki; order: falling. Submit the labels in the order that the ranking request calls for. a, c, b

* * *

Molecular target: recombinant human A1 receptors (hA1) (Homo sapiens, UniProt P30542)
Sequence (P30542 1-326): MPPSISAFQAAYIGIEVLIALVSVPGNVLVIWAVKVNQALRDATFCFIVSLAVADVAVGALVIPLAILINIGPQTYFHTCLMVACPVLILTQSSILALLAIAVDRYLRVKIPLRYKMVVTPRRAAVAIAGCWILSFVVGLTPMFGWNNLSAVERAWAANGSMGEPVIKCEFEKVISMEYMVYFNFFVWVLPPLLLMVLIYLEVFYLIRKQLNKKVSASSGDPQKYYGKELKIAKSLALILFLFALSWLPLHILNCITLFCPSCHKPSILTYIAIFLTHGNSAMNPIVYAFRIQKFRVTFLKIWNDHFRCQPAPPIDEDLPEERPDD
Experiment: Radioligand binding ([3H]CPX) at recombinant human A1 receptors in HEK-293 cells
Conditions: read-out: hA1 Ki or IC50; Table 2
pKi: −log10 of the molar value.
OUTCOME_MEASURE: pKi

Please review the following examples before continuing.
[
  {
    "COMPOUND": "CCCn1c(=O)c2[nH]c(-c3ccc(OCC(=O)Nc4ccc(C(=O)OC)cc4)cc3)nc2n(CCC)c1=O [Compound 21]",
    "STUDY_TARGET": "recombinant human A1 receptors (hA1) (Homo sapiens, UniProt P30542)",
    "pKi": 6.65
  },
  {
    "COMPOUND": "CCCn1c(=O)c2[nH]c(-c3ccc(OCC(=O)Nc4ccc(Br)cc4)cc3)nc2n(CCC)c1=O [Compound 32]",
    "STUDY_TARGET": "recombinant human A1 receptors (hA1) (Homo sapiens, UniProt P30542)",
    "pKi": 7.13
  },
  {
    "COMPOUND": "CCCn1c(=O)c2[nH]c(-c3ccc(OCC(=O)Nc4ccc(I)cc4)cc3)nc2n(CCC)c1=O [Compound 33]",
    "STUDY_TARGET": "recombinant human A1 receptors (hA1) (Homo sapiens, UniProt P30542)",
    "pKi": 6.53
  },
  {
    "COMPOUND": "CCCn1c(=O)c2[nH]c(-c3ccc(OCC(=O)Nc4ccc(C(C)=O)cc4)cc3)nc2n(CCC)c1=O [Compound 20]",
    "STUDY_TARGET": "recombinant human A1 receptors (hA1) (Homo sapiens, UniProt P30542)",
    "pKi": 6.80
  },
  {
    "COMPOUND": "CCCn1c(=O)c2[nH]c(-c3ccc(OCC(=O)N(Cc4ccccc4)Cc4ccccc4)cc3)nc2n(CCC)c1=O [Compound 15]",
    "STUDY_TARGET": "recombinant human A1 receptors (hA1) (Homo sapiens, UniProt P30542)",
    "pKi": 6.16
  }
]

[I] CCCn1c(=O)c2[nH]c(-c3ccc(OCC(=O)Nc4ccc(C(F)(F)F)cc4)cc3)nc2n(CCC)c1=O [Compound 29]
[II] CCCn1c(=O)c2[nH]c(-c3ccc(OCC(=O)Nc4cccc(C(C)=O)c4)cc3)nc2n(CCC)c1=O [Compound 19]
Choose between I and II : whose measured pKi value is numerically larger? Please respond with the label that marks your chosen entry. I
